Data provenance: patent US8455662B2

Measurement notes: Aqueous solubility of API at various pHs
Assay type: physicochemical
Reported conditions: aqueous medium, pH 7, aqueous buffer
Property measured: solubility

// lookup solubility for `Cn1c(Nc2ccc(C(F)(F)F)cc2)nc2cc(Oc3ccnc(-c4ncc(C(F)(F)F)[nH]4)c3)ccc21` < 1 µg/mL
